- measured-on: Sterol 14-alpha demethylase (Trypanosoma cruzi (strain CL Brener))
- Sequence (Q7Z1V1 whole entry): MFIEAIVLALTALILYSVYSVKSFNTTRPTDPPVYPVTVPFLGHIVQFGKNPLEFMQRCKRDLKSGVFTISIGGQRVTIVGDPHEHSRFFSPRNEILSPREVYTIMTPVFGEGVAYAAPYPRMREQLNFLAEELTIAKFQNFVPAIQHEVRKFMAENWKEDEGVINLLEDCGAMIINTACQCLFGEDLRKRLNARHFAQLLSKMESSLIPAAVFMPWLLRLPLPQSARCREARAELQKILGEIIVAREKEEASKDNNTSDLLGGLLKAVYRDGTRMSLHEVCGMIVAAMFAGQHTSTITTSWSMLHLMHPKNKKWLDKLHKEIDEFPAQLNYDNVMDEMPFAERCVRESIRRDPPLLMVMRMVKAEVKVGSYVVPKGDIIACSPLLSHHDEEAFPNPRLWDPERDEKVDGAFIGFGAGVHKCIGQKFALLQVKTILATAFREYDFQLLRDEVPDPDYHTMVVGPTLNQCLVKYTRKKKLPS
- measurement-description: GSK_TCAKS: pIC50 CYP51 from Trypanosoma cruzi.
property-measured: IC50 (µM)
Write the value in µM as a bare number.

Bench note: what IC50 did O=C(Nc1nc(-c2ccccn2)cs1)c1ccc(S(=O)(=O)N2CCCCC2)cc1 show?
6.31

If you can, please state the reported IC50 value of CC1CCCN(S(=O)(=O)c2ccc(C(=O)Nc3nc(-c4ccccn4)cs3)cc2)C1 (configuration not stated) .
2.51

State the recorded IC50 for this entry: O=S(=O)(c1cccc(CSc2nnc(-c3ccc4c(c3)OCO4)o2)c1)N1CCOCC1
12.6

Give its IC50 value. Item: CC(C)c1cc(Nc2cc(Cc3ccccc3)nc(N[C@H]3CC[C@H](O)CC3)n2)n[nH]1
20

What value of measured IC50 is listed for CC(C)COC(=O)Nc1ccc(N2CCC(CNS(=O)(=O)c3ccccc3)CC2)c(F)c1 ?
2

Bench note: what IC50 did O=c1nc(NCCCNCc2cc(Br)cc(Br)c2)[nH]c2ccsc12 show?
31.6

Data request, read-out IC50, for Cc1nnnn1-c1cccc(C(=O)N2CCC[C@@]3(C)c4ncncc4CCC23)c1 (some centres not stated)
25.1

For the molecule Cc1ccc2onc(Nc3ccnc(Nc4cccc(S(C)(=O)=O)c4)n3)c2c1 , what IC50 is on record?
39.8

Fill blank: measured IC50 of the molecule CN(C)S(=O)(=O)c1ccc(-c2cnc(N)c(-c3nc4ccc(F)cc4[nH]3)c2)cc1 is ____.
39.8

Query (molecule): O=C(COc1nn(-c2ccccc2)c2ncccc12)NCc1ccccc1 ; field requested: IC50
6.31

Need IC50, item COc1ccc(Nc2nc(N[C@H]3CC[C@H](O)CC3)ncc2Br)c(C(N)=O)c1
12.6

Return reported IC50; argument: CC(C)(C)c1csc(NC(=O)c2ccc([N+](=O)[O-])s2)n1
7.94

# IC50 lookup, item O=C(NC1CCN(C2Cc3ccc(NS(=O)(=O)c4cc(F)cc(F)c4)cc3C2)CC1)C1CC1 (configuration not stated)
50.1

Need IC50, item CCCc1cc(C(=O)Nc2ncc(-c3cccc(Br)c3)n2C)[nH]n1
25.1

// returns reported IC50 for input CC(C)c1cc(C(=O)N2CCCC(c3cc4ncccc4[nH]3)C2)on1 (configuration not stated)
50.1

Which IC50 value is on record for O=C1CCCCCC1(Cc1cnc[nH]1)c1ccc(Cl)cc1Cl (configuration not stated) ?
0.1

# input molecule: COc1ccc(-c2nc3ccncc3c(=O)n2CCOc2ccccc2)cc1 ; wanted: its IC50
0.0398

I would be grateful if you could share the reported IC50 for O=C(CN1CCC2(O)CCCCC2C1c1ccc2c(c1)OCO2)Nc1ccc(Cl)cc1Cl (configuration not stated) .
12.6

Which IC50 reading was recorded for the molecule CCN(CC)c1nc(N(C)C)nc2c1CN(Cc1ccccc1)CC2 ?
10

Sample COc1ccc(C(=O)[C@H]2C[C@@H]2CN(Cc2ccccn2)Cc2ccccn2)cc1 — what was its IC50?
39.8

// returns reported IC50 for input CNc1cc(Cn2c(C(=O)c3cc(C)cc(Cl)c3)c(C(C)C)c(=O)[nH]c2=O)ccn1
0.0316

Reported IC50 for Cc1nn(C)c(Cl)c1CN(Cc1cccnc1)Cc1ccsc1 : what is it?
0.0631

Look up IC50: COc1cc(Cl)c(C)cc1NC(=O)c1ccc([N+](=O)[O-])s1
15.8

Entry under review: c1ccc(CCNCc2cncc3nc(-c4cnccn4)n(C4CCCCC4)c23)cc1 . Reported IC50?
0.1

I have this molecule here, Clc1ccc(C(CC2CCCCO2)Cn2cncn2)c(Cl)c1 (configuration not stated) , and I need its recorded IC50.
0.251

Which measured IC50 value corresponds to CS(=O)(=O)c1ccccc1C(=O)N(Cc1ccccc1)c1ccccc1 ?
20
